target or system: MALAT1
stated conditions: ASO, A431, 0.005 µM
After the bases stand the sugars from the 5' end (letter, count) and the backbone: PS all phosphorothioate, else s phosphorothioate and o phosphodiester by linkage. Methylation of C is not given here. k = constrained ethyl (cEt); d = 2'-deoxy (DNA)
# target mRNA inhibition listing for each entry below
Remember to quote the unit after the number.

Example entries and their recorded answers appear below.
>  <primary sequence>
CGGAAATCGGCCTACG (sugars k3 d10 k3, PS)

>  <value observed>
30%

$$$$
>  <primary sequence>
GAATTACTTCCGTTAC (sugars k3 d10 k3, PS)

>  <value observed>
36%

$$$$
>  <primary sequence>
ACGGAGAACAACTCGC (sugars k3 d10 k3, PS)

>  <value observed>
1%

$$$$
>  <primary sequence>
ACTCGCATCACCGGAA (sugars k3 d10 k3, PS)

>  <value observed>
15%

$$$$
>  <primary sequence>
CCCCCCGCCTCAGTTA (sugars k3 d10 k3, PS)

>  <value observed>
-7%

$$$$
>  <primary sequence>
ACTATATTTAAGGCCT (sugars k3 d10 k3, PS)

>  <value observed>
40%

$$$$
>  <primary sequence>
TGAAGAATACCATCTG (sugars k3 d10 k3, PS)

>  <value observed>
30%

$$$$
>  <primary sequence>
GAATACCATCTGAAAG (sugars k3 d10 k3, PS)

>  <value observed>
16%

$$$$
>  <primary sequence>
GCATTCCCACCCAAAA (sugars k3 d10 k3, PS)

>  <value observed>
34%

$$$$
>  <primary sequence>
TAGTTCAACCCACCAA (sugars k3 d10 k3, PS)

>  <value observed>
-14%

$$$$

Name the reported target mRNA inhibition value associated with the sequence GTTATGCCTGGTTAGG (sugars k3 d10 k3, PS)
16%

Note, next up: ATCACAAATACGACTG (sugars k3 d10 k3, PS)
34%

Note, next up: GCTGAGTGTTCCTGCA (sugars k3 d10 k3, PS)
22%
